Target: CBL-B protein (Homo sapiens, UniProt Q13191)
Sequence (Q13191 whole entry): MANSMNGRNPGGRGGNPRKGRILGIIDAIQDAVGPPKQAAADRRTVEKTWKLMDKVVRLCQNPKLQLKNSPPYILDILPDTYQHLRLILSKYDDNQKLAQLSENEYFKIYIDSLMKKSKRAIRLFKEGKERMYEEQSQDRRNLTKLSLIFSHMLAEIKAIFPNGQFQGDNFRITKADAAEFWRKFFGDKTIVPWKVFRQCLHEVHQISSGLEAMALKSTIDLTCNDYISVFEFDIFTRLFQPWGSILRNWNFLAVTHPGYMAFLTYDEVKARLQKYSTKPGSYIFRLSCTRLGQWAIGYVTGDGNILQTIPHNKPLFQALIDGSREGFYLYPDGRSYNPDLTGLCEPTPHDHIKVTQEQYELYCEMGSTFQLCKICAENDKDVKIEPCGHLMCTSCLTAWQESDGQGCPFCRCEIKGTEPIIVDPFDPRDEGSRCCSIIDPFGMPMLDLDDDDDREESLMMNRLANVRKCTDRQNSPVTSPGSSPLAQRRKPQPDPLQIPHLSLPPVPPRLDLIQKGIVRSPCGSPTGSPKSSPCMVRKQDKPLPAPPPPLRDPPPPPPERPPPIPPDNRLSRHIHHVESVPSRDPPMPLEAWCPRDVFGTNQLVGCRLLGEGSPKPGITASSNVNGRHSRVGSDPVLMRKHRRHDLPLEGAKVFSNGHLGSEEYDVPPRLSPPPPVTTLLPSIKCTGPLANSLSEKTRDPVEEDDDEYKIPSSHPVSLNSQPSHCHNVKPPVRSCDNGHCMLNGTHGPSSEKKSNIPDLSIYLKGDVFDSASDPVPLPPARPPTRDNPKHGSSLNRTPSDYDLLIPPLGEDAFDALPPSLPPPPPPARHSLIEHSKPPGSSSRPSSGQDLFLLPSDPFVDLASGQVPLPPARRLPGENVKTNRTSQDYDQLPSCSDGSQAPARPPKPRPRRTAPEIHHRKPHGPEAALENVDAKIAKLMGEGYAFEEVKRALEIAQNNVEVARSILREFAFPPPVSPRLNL
Assay: CBL-B binding experiment (Streptavidin-Tb cryptate / Ligand L1 displacement)
Conditions: 8 nM CBL-B protein, 25° C., 60 minutes; Ki=Relative IC50/2
Procedure: The reaction system mainly includes 1× buffer, 20 mM HEPES pH 7.5, 150 mM NaCl, 0.01% Triton X-100, 0.5 mM TCEP, and 0.1% ug/ml BSA. […] After an additional 60 minutes of incubation at room temperature, the experimental plate is read using an EnVision plate. The luminescence signal values were converted to percentage inhibition rates. […] The IC50 values are calculated by XLFit (version 5.3.1.3) in Excel. […]
Ki listing for selected compounds.

Example entries begin here.
Compound	Ki
Cn1cnnc1C1(c2cccc(-n3cc(C(F)(F)F)c4cc(CN5CCC[C@@H]6C[C@@H]65)[nH]c4c3=O)c2)CCC1 [Compound T027]	< 50 nM
CCCNCc1cc2c(C(F)(F)F)cn(-c3cccc(C4(c5nncn5C)CCC4)c3)c(=O)c2[nH]1 [Compound T160]	< 50 nM

Input: Entry CO[C@H]1C[C@](c2cccc(-n3cc(C(F)(F)F)c4cc(CN5CCCC6(CC6)C5)[nH]c4c3=O)c2)(c2nncn2C)C1 [Compound T148] : reported Ki = ?
Output: < 50 nM

Input: Entry Cn1cnnc1C1(c2cccc(-n3cc(C(F)(F)F)c4cc(CN5CCC[C@]6(CCOC6)C5)[nH]c4c3=O)c2)CCC1 [Compound T123] : reported Ki = ?
Output: < 50 nM

Input: Entry CO[C@H]1C[C@@](c2cccc(-n3cc(C(F)(F)F)c4cc(CN5CCCC(C(F)F)C5)[nH]c4c3=O)c2)(c2nncn2C)C1 (some centres unmarked) [Compound T155] : reported Ki = ?
Output: < 50 nM

Input: Entry C[C@H]1CCCN(Cc2cc3c(C(F)(F)F)cn(-c4cccc(C5(c6nncn6C)CCC5)c4)c(=O)c3[nH]2)C1 [Compound T033] : reported Ki = ?
Output: < 50 nM

Input: Entry CCCN(Cc1cc2c(C(F)(F)F)cn(-c3cccc([C@]4(c5nncn5C)C[C@@H](C)C4)c3)c(=O)c2[nH]1)C(C)C [Compound T029] : reported Ki = ?
Output: < 50 nM

Input: Entry C[C@H]1CCCN(Cc2cc3c(C4CC4)cn(-c4cccc(C5(c6nncn6C)CC6(CC6)C5)c4)c(=O)c3[nH]2)C1 [Compound T030] : reported Ki = ?
Output: < 50 nM

Input: Entry CCNCc1cc2c(C(F)(F)F)cn(-c3cccc(C4(c5nncn5C)CCC4)c3)c(=O)c2[nH]1 [Compound T102] : reported Ki = ?
Output: < 50 nM

Input: Entry C[C@H](NCc1cc2c(C(F)(F)F)cn(-c3cccc([C@]4(c5nncn5C)C[C@@H](C)C4)c3)c(=O)c2[nH]1)C(C)(C)C [Compound T158] : reported Ki = ?
Output: < 50 nM

Input: Entry Cn1cnnc1C1(c2cccc(-n3cc(C(F)(F)F)c4cc(CN5CCC6(CCOC6)CC5)[nH]c4c3=O)c2)CCC1 [Compound T125] : reported Ki = ?
Output: < 50 nM

Input: Entry Cn1cnnc1[C@]1(c2cccc(-n3cc(C(F)(F)F)c4cc(CN5CCC[C@@H]6C[C@@H]65)[nH]c4c3=O)c2)C[C@H](C)C1 [Compound T056] : reported Ki = ?
Output: < 50 nM

Input: Entry CO[C@H]1C[C@@](c2cccc(-n3cc(C(F)(F)F)c4cc(CNCCC5CC5)[nH]c4c3=O)c2)(c2nncn2C)C1 [Compound T153] : reported Ki = ?
Output: < 50 nM

Input: Entry Cn1cnnc1C1(c2cccc(-n3cc(C(F)(F)F)c4cc(CN5CCC[C@@H](O)C5)[nH]c4c3=O)c2)CCC1 [Compound T039] : reported Ki = ?
Output: < 50 nM

Input: Entry CCCN(Cc1cc2c(C(F)(F)F)cn(-c3cccc(C4(c5nncn5C)CCC4)c3)c(=O)c2[nH]1)C(C)C [Compound T042] : reported Ki = ?
Output: < 50 nM

Input: Entry Cn1cnnc1C1(c2cccc(-n3cc(C(F)(F)F)c4cc(CN5CCCC6(CC6)C5)[nH]c4c3=O)c2)CCC1 [Compound T054] : reported Ki = ?
Output: < 50 nM
